The reported numbers originate from ChEMBL document CHEMBL1135587.

- assayed-target: C-C chemokine receptor type 3 (Homo sapiens)
- Sequence (P51677 whole entry): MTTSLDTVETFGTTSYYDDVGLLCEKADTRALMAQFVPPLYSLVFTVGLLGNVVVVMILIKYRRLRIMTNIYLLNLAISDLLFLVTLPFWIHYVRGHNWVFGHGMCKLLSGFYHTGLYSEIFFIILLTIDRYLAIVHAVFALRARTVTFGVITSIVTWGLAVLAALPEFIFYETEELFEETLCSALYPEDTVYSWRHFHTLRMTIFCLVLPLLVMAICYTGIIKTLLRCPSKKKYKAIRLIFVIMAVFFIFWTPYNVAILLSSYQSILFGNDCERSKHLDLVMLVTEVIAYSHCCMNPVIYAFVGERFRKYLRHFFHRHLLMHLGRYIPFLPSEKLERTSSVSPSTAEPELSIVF
- assay-notes: Inhibitory activity against recombinant human Chemokine receptor type 3 (CCR3) expressed in chinese hamster ovary cells
- Type: cell-based, CHO
Recorded pIC50 by entry
// returns pIC50 (minus log10 of molar concentration), number only

Below: 8 compounds and their reported pIC50.
| chemical-string | data-value |
| --- | --- |
| N#Cc1cccc(NC(=O)Nc2ccccc2CN2CCC(Cc3ccc(F)cc3)CC2)c1 | 6.51 |
| COc1ccc(NC(=O)NCc2ccccc2CN2CCC(Cc3ccccc3)CC2)cc1 | 5.89 |
| N#CC(CCCN1CCC(Cc2ccccc2)CC1)(c1ccccc1)c1ccccc1 | 5.34 |
| O=C(Nc1ccccc1)Nc1cccc(C(=O)O)c1CN1CCC(Cc2ccc(F)cc2)CC1 | 7.77 |
| O=C(Cc1ccc(F)cc1)Nc1ccccc1CCN1CCC(Cc2ccc(F)cc2)CC1 | 6.82 |
| N#Cc1cccc(NC(=O)Nc2ccc(O)cc2CN2CCC(Cc3ccccc3)CC2)c1 | 6.56 |
| COC(=O)c1ccc(NC(=O)Nc2cccc(C(C)=O)c2)c(CN2CCC(Cc3ccc(F)cc3)CC2)c1 | 7.38 |
| c1ccc(CCN2CCC(Cc3ccccc3)CC2)cc1 | 5.15 |

Value of measured pIC50 for the entry COC(=O)c1ccc(CN2CCC(Cc3ccccc3)CC2)c(NC(=O)Nc2cccc(OC)c2)c1 : 6.11

Value of measured pIC50 for the entry CNC(=O)c1cccc(NC(=O)Nc2cccc(C(C)=O)c2)c1CN1CCC(Cc2ccc(F)cc2)CC1 : 9.00
